Reference for the values: ChEMBL document CHEMBL1145052

Property: Reduction; scope: individual compounds
# System: Rattus norvegicus
# TEST SUMMARY: Ability of compound to reduce the infarct size in rat administered via bolus at 0.02 mmol/kg
# Type: functional
MEASUREMENT TYPE: Reduction (%)

1. Cc1ncc2c(c1O)COC2(O)C(F)(F)P(=O)(O)O (centres undefined) = 46
2. Cc1ncc(C(O)P(=O)(O)O)c(O)c1O (centres undefined) = 19
3. Cc1ncc(CP(=O)(O)O)c(O)c1O = 20
4. Cc1ncc(COP(=O)(O)O)c(C=O)c1O [PYRIDOXAL PHOSPHATE ANHYDROUS] = 33
